# protocol.text: Pharmacokinetic study, plasma level 2 hours after oral dosing in rats
# Format: in vivo
# Experimental: Pharmacokinetic studies were conducted to determine absorption and distribution profiles of the disclosed compounds which were orally administered to rats. Compounds were formulated in a 1% DMA/99% Vitamin E TPGS vehicle. Prepared compounds were dosed via oral gavage (PO). […] Plasma samples were thawed and the required amount of plasma for standards, blanks and dilutions were made. […] The well solutions were analyzed by the LC/MS/MS conditions and specifications below. […]
reported.endpoint: 2 hr plasma level-ng/mL (rat, 10 mg/kg PO, 2 hr)

INSERT INTO assay_data (molecule, result) VALUES
  ('Cc1c(C(=O)C(=O)Nc2cccc(Cl)c2)c2cc(O)ccc2n1Cc1ccc(Cl)cc1 [Compound 71]', 'A (A = Less than 10 nM)'),
  ('COc1cc(NC(=O)C(=O)c2c(C)n(Cc3ccc(Cl)cc3)c3ccc(O)cc23)ccn1 [Compound 2]', 'A (A = Less than 10 nM)');
